# Subject of test: T1, human EphB1 (Homo sapiens, UniProt P54762)
# T1 construct: a protein of the extracellular region of each human Eph receptor fused with the SEAP protein and the His tag; made in house; host or cells: Expi293F cells (culture supernatant)
# T1 sequence (P54762 18-540 limits assumed): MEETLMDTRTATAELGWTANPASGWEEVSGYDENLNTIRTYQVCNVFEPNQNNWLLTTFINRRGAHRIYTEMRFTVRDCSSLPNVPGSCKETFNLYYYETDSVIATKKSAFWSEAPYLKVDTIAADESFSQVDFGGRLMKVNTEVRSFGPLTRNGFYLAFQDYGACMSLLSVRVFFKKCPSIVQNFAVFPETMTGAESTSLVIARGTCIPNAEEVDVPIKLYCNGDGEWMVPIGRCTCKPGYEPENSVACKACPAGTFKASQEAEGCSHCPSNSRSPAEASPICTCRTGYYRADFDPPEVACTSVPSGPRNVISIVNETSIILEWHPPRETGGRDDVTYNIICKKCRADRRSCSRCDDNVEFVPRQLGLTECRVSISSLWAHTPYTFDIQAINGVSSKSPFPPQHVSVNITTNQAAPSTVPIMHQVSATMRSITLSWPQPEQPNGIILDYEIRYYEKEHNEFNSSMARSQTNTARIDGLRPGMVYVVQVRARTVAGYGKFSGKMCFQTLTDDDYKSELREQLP
# Test details: Selectivity ELISA of humanized antibodies for human Eph receptor
# Type: binding
# Condition description: coated protein 1 nM
For each entry below, report its hEphB1-SEAP-: absorbance at 450 nm, percentage with respect to hEphA4-SEAP-His as 100% value.
Answers are plain numbers, in %.

| Molecule | Experimental result |
| --- | --- |
| 88 (antibody, V domains shown, constant regions without entry; synthetic humanized antibody light chain variable region sequence; synthetic humanized antibody heavy chain variable region sequence) VL: DIQMTQSPSSLSASVGDRVTITCRASENIYRNLAWYQQKPGKAPQLLLYAATNLADGVPSRFSGSGSGTDYTLTISSLQPEDFATYYCQHFWGTPWTFGQGTKVEIK VH: QVQLVQSGSELKKPGASVKVSCKASGYTFTDYSMHWVRQAPGQGLKWMGWINTETGEPTYAQGFTGRFVFSLDTSVSTAYLQISSLKAEDTAVYYCARIPLYYYGSRYWYFDVWGQGTTVTVSS | 6.1 |

Quick one: give me hEphB1-SEAP-: absorbance at 450 nm, percentage with respect to hEphA4-SEAP-His as 100% for each item below, same order please.
1. 85 (antibody, V domains shown, constant regions without entry; synthetic humanized antibody light chain variable region sequence; synthetic humanized antibody heavy chain variable region sequence) VL: DIQMTQSPSSLSASVGDRVTITCRASENIYRNLAWYQQKPGKAPKLLLYAATNLADGVPSRFSGSGSGTDYTLTISSLQSEDFATYYCQHFWGTPWTFGQGTKVEIK VH: QVQLVQSGSELKKPGASVKVSCKASGYTFTDYSMHWVRQAPGQGLKWMGWINTETGEPTYADDFKGRFVFSLDTSVSTAYLQISSLKAEDTAVYYCARIPLYYYGSRYWYFDVWGQGTTVTVSS
2. 160 (antibody, V domains shown, synthetic humanized antibody heavy chain variable region sequence; synthetic humanized antibody light chain variable region sequence) VH: QIQLVQSGSELKKPGASVKVSCKASGYTFTDYSMHWVRQAPGQGLKWMGWINTETGEPTYADDFKGRFVFSLDTSVSTAYLQISSLKAEDTAVYYCARIPLYYYGSRYWYFDVWGQGTTVTVSS VL: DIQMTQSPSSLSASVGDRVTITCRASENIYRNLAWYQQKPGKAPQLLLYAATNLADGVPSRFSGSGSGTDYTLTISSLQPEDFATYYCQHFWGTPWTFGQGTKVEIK
3. 73 (antibody, V domains shown, synthetic humanized antibody heavy chain variable region sequence; synthetic humanized antibody light chain variable region sequence) VH: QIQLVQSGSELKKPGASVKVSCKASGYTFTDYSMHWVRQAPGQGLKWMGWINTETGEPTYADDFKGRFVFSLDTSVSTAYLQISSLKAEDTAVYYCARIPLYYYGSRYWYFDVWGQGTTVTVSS VL: EIVMTQSPATLSVSPGERATLSCRASENIYRNLAWYQQKPGQSPRLLIYAATNLADGIPARFSGSGSGTEYTLTISSLQSEDFAVYYCQHFWGTPWTFGQGTKVEIK

Reply:
1: 5.0; 2: 6.1; 3: 5.7
